Taken from patent US20030109523A1.

Reported remaining activity at 200 µM by item:
Target Of Assay: αIIbβ3 integrin (Homo sapiens, UniProt P05106+P08514)
Construct: Human Platelets: Platelet-enriched plasma was obtained commercially from a donor pool; from tissue; host or cells: human platelet-rich plasma from a commercial donor pool
Sequence (P08514 32-887 limits assumed): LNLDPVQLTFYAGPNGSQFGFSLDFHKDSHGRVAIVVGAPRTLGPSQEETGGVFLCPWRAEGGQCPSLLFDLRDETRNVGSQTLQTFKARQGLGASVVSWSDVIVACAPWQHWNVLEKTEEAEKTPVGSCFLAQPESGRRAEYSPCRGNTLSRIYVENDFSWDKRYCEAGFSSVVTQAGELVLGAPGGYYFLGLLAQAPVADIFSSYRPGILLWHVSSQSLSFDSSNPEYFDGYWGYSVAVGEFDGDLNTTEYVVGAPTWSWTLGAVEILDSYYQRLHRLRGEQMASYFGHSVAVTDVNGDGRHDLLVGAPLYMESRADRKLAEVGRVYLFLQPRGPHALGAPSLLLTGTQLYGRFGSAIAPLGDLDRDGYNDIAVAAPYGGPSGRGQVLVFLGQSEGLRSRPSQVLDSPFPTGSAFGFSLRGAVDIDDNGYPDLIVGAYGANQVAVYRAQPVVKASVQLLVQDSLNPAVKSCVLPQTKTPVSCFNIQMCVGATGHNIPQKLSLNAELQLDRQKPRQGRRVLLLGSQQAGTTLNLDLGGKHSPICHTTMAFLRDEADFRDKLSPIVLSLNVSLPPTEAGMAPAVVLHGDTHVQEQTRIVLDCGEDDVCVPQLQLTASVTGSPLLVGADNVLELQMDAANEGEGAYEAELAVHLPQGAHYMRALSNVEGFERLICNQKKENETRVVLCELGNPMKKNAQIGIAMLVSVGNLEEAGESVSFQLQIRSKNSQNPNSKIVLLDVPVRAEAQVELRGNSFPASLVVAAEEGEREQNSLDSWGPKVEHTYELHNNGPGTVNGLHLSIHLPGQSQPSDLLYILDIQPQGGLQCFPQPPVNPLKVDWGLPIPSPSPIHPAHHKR
Sequence (P08514 891-1039 partner limits assumed): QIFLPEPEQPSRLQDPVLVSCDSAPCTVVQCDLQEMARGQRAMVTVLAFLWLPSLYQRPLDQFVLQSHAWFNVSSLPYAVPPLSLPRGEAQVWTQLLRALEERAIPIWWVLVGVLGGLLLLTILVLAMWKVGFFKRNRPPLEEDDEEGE
Sequence (P05106 27-788): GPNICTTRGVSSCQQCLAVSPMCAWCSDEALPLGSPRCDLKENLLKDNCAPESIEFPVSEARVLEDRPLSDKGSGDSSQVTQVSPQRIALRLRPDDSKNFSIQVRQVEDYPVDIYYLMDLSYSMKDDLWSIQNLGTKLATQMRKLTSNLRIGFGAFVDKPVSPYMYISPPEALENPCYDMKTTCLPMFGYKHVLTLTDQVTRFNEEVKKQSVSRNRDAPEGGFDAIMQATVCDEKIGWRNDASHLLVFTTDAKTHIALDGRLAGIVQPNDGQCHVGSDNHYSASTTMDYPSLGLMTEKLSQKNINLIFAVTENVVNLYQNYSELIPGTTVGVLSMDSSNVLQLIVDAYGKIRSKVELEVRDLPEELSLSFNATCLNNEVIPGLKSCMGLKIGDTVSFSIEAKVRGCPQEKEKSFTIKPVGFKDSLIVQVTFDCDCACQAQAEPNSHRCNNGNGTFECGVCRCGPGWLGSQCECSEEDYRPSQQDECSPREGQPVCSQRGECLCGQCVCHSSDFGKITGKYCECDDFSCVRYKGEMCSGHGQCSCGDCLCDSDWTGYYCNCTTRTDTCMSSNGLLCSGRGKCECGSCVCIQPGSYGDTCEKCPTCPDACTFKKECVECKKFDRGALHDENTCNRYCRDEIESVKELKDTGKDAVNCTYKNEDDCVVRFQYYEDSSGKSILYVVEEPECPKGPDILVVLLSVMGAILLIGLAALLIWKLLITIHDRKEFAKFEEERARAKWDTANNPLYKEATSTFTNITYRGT
Method Notes: ADP-Induced Platelet Aggregation
Type: cell-based
Settings: Table VII; @200 μM; percent of maximal aggregation
Counter-ions that a name gives are not always drawn.
Recorded Endpoint: remaining activity at 200 µM (%)

* N=C(N)NCCOc1ccc2c(c1)CCCC(CC(=O)O)C2 (centres unmarked) [Example 61, Hydrochloride] | 85.3
* N=C(N)NCCCCc1ccc2c(c1)NC(=O)C(CC(=O)O)C2.O=C(O)C(F)(F)F (centres unmarked) [Example 121, Trifluoroacetate] | 62
* N=C(N)NCCCNC(=O)c1ccc2c(c1)NC(=O)C(CC(=O)O)C2 (centres unmarked) [Example 201, Hydrochloride] | 85
* N=C(N)NCCCCOc1cccc2c1NC(=O)C(CC(=O)O)C2 (centres unmarked) [Example 235] | 81.1
* N=C(N)NCCCCCOc1cccc2c1NC(=O)C(CC(=O)O)C2 (centres unmarked) [Example 250] | 69
* CCn1c(=O)c(CC(=O)O)cc2ccc(OCCCNC(=N)N)cc21.O=C(O)C(F)(F)F [Example 149, Trifluoroacetate] | 90.2
* N=C(N)NCCOc1ccc2cc(CC(=O)O)c(=O)[nH]c2c1 [Example 185] | 94.8
* N=C(N)NCCOc1ccc2c(c1)NC(=O)C(CCC(=O)O)C2 (centres unmarked) [Example 230] | 95.2
* N=C(N)NCCCOc1ccc2c(c1)NC(=O)C(CCC(=O)O)C2 (centres unmarked) [Example 231] | 78.3
* Cl.N=C(N)NCCCOc1ccc2c(c1)NC(=O)C(CC(=O)O)C2 (centres unmarked) [Example 86, Hydrochloride] | 80.9
* N=C(N)NCCOc1ccc2c(c1)NC(=O)C(CC(=O)O)C2 (centres unmarked) [Example 85, Hydrochloride] | 93.3
* N=C(N)NCCCCOc1ccc2c(c1)NC(=O)C(CC(=O)O)C2.O=C(O)C(F)(F)F (centres unmarked) [Example 84, Trifluoroacetate] | 62
* N=C(N)NCCCCOc1ccc2[nH]c(=O)c(CC(=O)O)cc2c1 [Example 238, Trifluoroacetic Acid Salt] | 94
* Cl.N=C(N)NCCCCOc1ccc2cc(CC(=O)O)c(=O)[nH]c2c1 [Example 184, Hydrochloride] | 85.5
* N=C(N)NCCCOc1ccc2cc(CC(=O)O)c(=O)n(Cc3ccccc3)c2c1 [Example 155] | 83.7
* N=C(N)NCCC=Cc1ccc2c(c1)NC(=O)C(CC(=O)O)C2.O=C(O)C(F)(F)F (centres unmarked) [Example 112, Trifluoroacetate] | 80.4
* N=C(N)NCCOc1ccc2c(c1)CC(CCC(=O)O)C(=O)N2 (centres unmarked) [Example 222] | 90.3
